Kindly supply the reported MIC values for the records listed here.
Tested on: Macrophomina phaseolina
Test: Antifungal activity against Macrophomina phaseolina isolate CE173 after 48 to 72 hr
Assay type: functional
State just the number; it will be interpreted in µg/mL.

The value of MIC recorded for O=C(/C=C/c1ccccc1)c1ccc(O)cc1O [2',4'-DIHYDROXYCHALCONE] when tested on Macrophomina phaseolina reads 50

The value of MIC recorded for CC(=O)N1CCN(c2ccc(OCC3COC(Cn4ccnc4)(c4ccc(Cl)cc4Cl)O3)cc2)CC1 (stereo not drawn) [KETOCONAZOLE] when tested on Macrophomina phaseolina reads 50

The value of MIC recorded for COc1c(O)ccc(C(=O)/C=C/c2ccccc2)c1O [LARREIN] when tested on Macrophomina phaseolina reads 50

The value of MIC recorded for CO/C=C(/C(=O)OC)c1ccccc1Oc1cc(Oc2ccccc2C#N)ncn1 [AZOXYSTROBIN] when tested on Macrophomina phaseolina reads 2.5

The value of MIC recorded for COC(=O)Nc1nc2ccccc2[nH]1 [CARBENDAZIM] when tested on Macrophomina phaseolina reads 0.25

The value of MIC recorded for COC(=O)N(OC)c1ccccc1COc1ccn(-c2ccc(Cl)cc2)n1 [PYRACLOSTROBIN] when tested on Macrophomina phaseolina reads 2.5

###

Test system: Fusarium graminearum
Experiment: microbe, parasite or virus in culture
Type: functional
Conditions: isolate CE170
Kindly supply the reported MIC values for the records listed here.

compound CO/C=C(/C(=O)OC)c1ccccc1Oc1cc(Oc2ccccc2C#N)ncn1 , MIC observed: 0.25 µg/mL

compound CC(=O)N1CCN(c2ccc(OCC3COC(Cn4ccnc4)(c4ccc(Cl)cc4Cl)O3)cc2)CC1 (stereo not drawn) , MIC observed: 40 µg/mL

compound COc1c(O)ccc(C(=O)/C=C/c2ccccc2)c1O , MIC observed: 25 µg/mL

compound COC(=O)Nc1nc2ccccc2[nH]1 , MIC observed: 0.75 µg/mL

compound O=C(/C=C/c1ccccc1)c1ccc(O)cc1O [2',4'-DIHYDROXYCHALCONE] , MIC observed: 25 µg/mL

compound CC(CCc1ccc(O)cc1)OC(=O)/C=C/c1ccc(O)c(O)c1 (stereo not drawn) , MIC observed: > 50 µg/mL

compound COC(=O)N(OC)c1ccccc1COc1ccn(-c2ccc(Cl)cc2)n1 , MIC observed: 0.05 µg/mL

compound CC(CCc1ccc(O)c(O)c1)OC(=O)/C=C/c1ccc(O)c(O)c1 (stereo not drawn) , MIC observed: > 50 µg/mL

###

Kindly supply the reported MIC values for the records listed here.
System: Fusarium equiseti
Assay: Antifungal activity against Fusarium equiseti (CE181) after 48 to 72 hr
Assay type: functional
State just the number; it will be interpreted in µg/mL.

compound O=C(/C=C/c1ccccc1)c1ccc(O)cc1O [2',4'-DIHYDROXYCHALCONE] , MIC observed: 25

compound CC(=O)N1CCN(c2ccc(OCC3COC(Cn4ccnc4)(c4ccc(Cl)cc4Cl)O3)cc2)CC1 (stereo not drawn) [KETOCONAZOLE] , MIC observed: 50

compound COC(=O)Nc1nc2ccccc2[nH]1 [CARBENDAZIM] , MIC observed: 0.75

compound COc1c(O)ccc(C(=O)/C=C/c2ccccc2)c1O [LARREIN] , MIC observed: 25

compound CO/C=C(/C(=O)OC)c1ccccc1Oc1cc(Oc2ccccc2C#N)ncn1 [AZOXYSTROBIN] , MIC observed: 12.5

compound COC(=O)N(OC)c1ccccc1COc1ccn(-c2ccc(Cl)cc2)n1 [PYRACLOSTROBIN] , MIC observed: 12.5

###

Tested on: Alternaria alternata
Test: Antifungal activity against Alternaria alternata (CE172) after 48 to 72 hr
Type: functional
Metric: MIC (µg/mL)
State just the number; it will be interpreted in µg/mL.

compound COC(=O)N(OC)c1ccccc1COc1ccn(-c2ccc(Cl)cc2)n1 [PYRACLOSTROBIN] , MIC observed: 0.4

compound O=C(/C=C/c1ccccc1)c1ccc(O)cc1O [2',4'-DIHYDROXYCHALCONE] , MIC observed: 25

compound CC(=O)N1CCN(c2ccc(OCC3COC(Cn4ccnc4)(c4ccc(Cl)cc4Cl)O3)cc2)CC1 (stereo not drawn) [KETOCONAZOLE] , MIC observed: 5

compound COc1c(O)ccc(C(=O)/C=C/c2ccccc2)c1O [LARREIN] , MIC observed: 25

compound COC(=O)Nc1nc2ccccc2[nH]1 [CARBENDAZIM] , MIC observed: 75

compound CO/C=C(/C(=O)OC)c1ccccc1Oc1cc(Oc2ccccc2C#N)ncn1 [AZOXYSTROBIN] , MIC observed: 2.5
